# assay_overview: Oral bioavailability in rats (p.o. vs i.v., HPLC/MS-MS)
# test_parameters: rat, in vivo
Parameter: bioavailability. Scope: all listed entries.
metric_name: bioavailability

1. CC[C@H]1OC(=O)[C@H](C)[C@@H](O[C@H]2C[C@@](C)(OC)[C@@H](O)[C@H](C)O2)[C@H](C)[C@@H](O[C@@H]2O[C@H](C)C[C@H](N(C)C)[C@H]2O)[C@](C)(O)C[C@@H](C)CN(CCCNC(=O)Cc2c(C)n(C(=O)c3ccc(Cl)cc3)c3ccc(OC)cc23)[C@H](C)[C@@H](O)[C@]1(C)O = < 10%
2. CC[C@H]1OC(=O)[C@H](C)[C@@H](O[C@H]2C[C@@](C)(OC)[C@@H](O)[C@H](C)O2)[C@H](C)[C@@H](O[C@@H]2O[C@H](C)C[C@H](N(C)C)[C@H]2O)[C@](C)(O)C[C@@H](C)CN(CCCNC(=O)c2cccnc2Nc2cccc(C(F)(F)F)c2C)[C@H](C)[C@@H](O)[C@]1(C)O = < 10%
3. CC[C@H]1OC(=O)[C@H](C)[C@@H](O)[C@H](C)[C@@H](O[C@@H]2O[C@H](C)C[C@H](N(C)C)[C@H]2O)[C@](C)(O)C[C@@H](C)CN(CCCNC(=O)Cc2c(C)n(C(=O)c3ccc(Cl)cc3)c3ccc(OC)cc23)[C@H](C)[C@@H](O)[C@]1(C)O = < 10%

Where do these numbers come from? They come from patent US20060183696A1.
